system: HSkMC; test: cytotoxicity call (relative viability < 0.9); conditions: 10 µM
In all, about 39,000 compounds went through this assay and about 1,500 (3.8%) were called active. The full list was thinned out, with actives kept by preference.
measurement-name: cytotoxicity call

As a guide, the following entries are already answered.
{"columns": ["compound", "cytotoxicity call"],
 "data": [
  ["C[C@@H]1CN([C@@H](C)CO)C(=O)c2cc(NC(=O)Nc3ccc(F)cc3)ccc2O[C@H]1CN(C)Cc1ccc(Cl)c(Cl)c1", "inactive"],
  ["C[C@@H]1CN([C@@H](C)CO)C(=O)c2cc(NC(=O)Nc3ccc(F)cc3)ccc2O[C@@H]1CN(C)Cc1ccc(Cl)c(Cl)c1", "active"],
  ["COCC#Cc1ccc([C@H]2[C@H](CO)N3C(=O)CN(C(=O)CN4CCOCC4)C[C@@H]23)cc1", "inactive"],
  ["C[C@@H]1CN([C@@H](C)CO)C(=O)Cc2cc(NC(=O)Cc3cn(C)c4ccccc34)ccc2O[C@@H]1CN(C)Cc1ccc(Cl)c(Cl)c1", "inactive"],
  ["C[C@H]1CN([C@@H](C)CO)C(=O)Cc2cc(NC(=O)Cc3cn(C)c4ccccc34)ccc2O[C@H]1CN(C)Cc1ccc(Cl)c(Cl)c1", "active"]
]}

Observed cytotoxicity call on HSkMC, entry `C[C@H]1CN([C@@H](C)CO)C(=O)c2cc(NC(=O)Nc3ccc(F)cc3)ccc2O[C@H]1CN(C)Cc1ccc(Cl)c(Cl)c1` , equals inactive

Observed cytotoxicity call on HSkMC, entry `C[C@@H]1CN([C@@H](C)CO)C(=O)Cc2cc(NC(=O)Cc3cn(C)c4ccccc34)ccc2O[C@H]1CN(C)Cc1ccc(Cl)c(Cl)c1` , equals inactive

Observed cytotoxicity call on HSkMC, entry `C[C@H](CO)N1C[C@H](C)[C@H](CN(C)Cc2ccc(Cl)c(Cl)c2)OCCCC[C@H](C)Oc2ccc(NC(=O)Nc3ccc(C(F)(F)F)cc3)cc2C1=O` , equals inactive

Observed cytotoxicity call on HSkMC, entry `C[C@@H]1CN([C@@H](C)CO)C(=O)Cc2cc(NC(=O)C3CCCCC3)ccc2O[C@H]1CN(C)Cc1ccc(C(=O)Nc2ccccc2N)cc1` , equals inactive

Observed cytotoxicity call on HSkMC, entry `C[C@@H]1CN([C@H](C)CO)C(=O)Cc2cc(NC(=O)Cc3cn(C)c4ccccc34)ccc2O[C@@H]1CN(C)Cc1ccc(Cl)c(Cl)c1` , equals inactive

====

test system: HSkMC; assay: cytotoxicity call (relative viability < 0.9); settings: 10 µM
The campaign covered roughly 39,000 compounds. About 1,500 (3.8%) were called active. The sample holds actives, similar compounds and a random draw of the others, so the mix is not that of the screen.
Output constraint: value belongs to label 1 = active, label 0 = inactive

Please review the following examples before continuing.
{"columns": ["compound-smiles", "label-class"],
 "data": [
  ["C[C@@H]1CN([C@H](C)CO)S(=O)(=O)c2ccc(-c3cccnc3)cc2O[C@H]1CN(C)C(=O)NC1CCCC1", "label 0"],
  ["C[C@H]1CN([C@@H](C)CO)C(=O)CCCn2nncc2CO[C@@H]1CN(C)C(=O)Nc1ccc(N2CCCCC2)cc1", "label 0"],
  ["COc1ccc(S(=O)(=O)Nc2ccc3c(c2)CC(=O)N([C@@H](C)CO)C[C@@H](C)[C@@H](CN(C)Cc2ccc(-c4ccccc4)cc2)O3)cc1", "label 0"]
]}

Can you look up the reported call for `CC(=O)N[C@H]1[C@H](O[C@H]2CC[C@]3(C)[C@H]4CC=C5[C@@H]6CC(C)(C)CC[C@]6(C(=O)O[C@H]6OC[C@@H](O)[C@@H](O)[C@@H]6O)[C@@H](O)C[C@@]5(C)[C@]4(C)CC[C@H]3C2(C)C)O[C@H](CO[C@H]2OC[C@@H](O)[C@@H](O[C@H]3OC[C@@H](O)[C@@H](O)[C@@H]3O)[C@@H]2O)[C@@H](O[C@@H]2O[C@@H](C)[C@H](O)[C@@H](O)[C@H]2O[C@@H]2O[C@@H](C)[C@H](O)[C@@H](O)[C@H]2O)[C@@H]1O` for me?
label 0

Can you look up the reported call for `CO[C@@H]1CN(C)C(=O)c2ccc(NC(=O)Nc3cccc(F)c3)cc2OC[C@@H](C)N(C(=O)Nc2c(C)noc2C)C[C@@H]1C` for me?
label 0

Can you look up the reported call for `COc1ccc(S(=O)(=O)Nc2ccc3c(c2)OC[C@@H](C)N(C)C[C@@H](C)[C@H](OC)CN(C)C3=O)cc1` for me?
label 0

Can you look up the reported call for `COc1ccccc1C#Cc1ccc2c(c1)O[C@H](CN(C)Cc1cccnc1)[C@H](C)CN([C@H](C)CO)S2(=O)=O` for me?
label 0

Can you look up the reported call for `Cc1cc(C(=O)Nc2cccc3c2O[C@@H](CN(C)Cc2ccc(Oc4ccccc4)cc2)[C@H](C)CN([C@H](C)CO)C3=O)n(C)n1` for me?
label 0

Can you look up the reported call for `COc1ccc([Si](C)(C)[C@H]2[C@H](CCO)O[C@@]3(C(=O)N(Cc4ccccc4)c4ccc(N(C=O)c5ccccc5)cc43)[C@@H]2C)cc1` for me?
label 0

Can you look up the reported call for `COc1ccc(S(=O)(=O)Nc2ccc3c(c2)CC(=O)N([C@@H](C)CO)C[C@H](C)[C@H](CN(C)Cc2ccc(-c4ccccc4)cc2)O3)cc1` for me?
label 1

Can you look up the reported call for `COc1ccc(S(=O)(=O)Nc2ccc3c(c2)CC(=O)N([C@H](C)CO)C[C@H](C)[C@H](CN(C)Cc2ccc(-c4ccccc4)cc2)O3)cc1` for me?
label 0

Can you look up the reported call for `COc1ccc(S(=O)(=O)Nc2ccc3c(c2)CC(=O)N([C@H](C)CO)C[C@H](C)[C@@H](CN(C)Cc2ccc(-c4ccccc4)cc2)O3)cc1` for me?
label 0

Can you look up the reported call for `COc1cccc(C#Cc2ccc3c(c2)O[C@@H](CN(C)C(=O)c2ccccn2)[C@H](C)CN([C@H](C)CO)S3(=O)=O)c1` for me?
label 0

Can you look up the reported call for `CC(=O)Nc1ncc(CN2CCOCC2)s1` for me?
label 0

====

test system: HSkMC (human skeletal muscle cells); assay: cytotoxicity call (relative viability < 0.9); details: 10 µM
The campaign covered roughly 39,000 compounds. About 1,500 (3.8%) were called active. Many of the other results were omitted from the sample, so actives are more common in it than they were.
Output constraint: value belongs to YES for active, NO for inactive

Please review the following examples before continuing.
{"columns": ["compound", "label-class"],
 "data": [
  ["C[C@@H]1CCCCO[C@@H](CN(C)C(=O)c2ccccc2)[C@@H](C)CN([C@@H](C)CO)C(=O)c2cc(NC(=O)Cc3ccccc3)ccc2O1", "NO"],
  ["Cc1cc(C(=O)Nc2cccc3c2O[C@H](CN(C)S(=O)(=O)c2ccc(F)cc2)[C@H](C)CN([C@H](C)CO)C3=O)n(C)n1", "NO"],
  ["C[C@@H]1CCCCO[C@H](CN(C)S(=O)(=O)c2ccc(F)cc2)[C@H](C)CN([C@@H](C)CO)C(=O)c2cc(NS(=O)(=O)c3ccc(Cl)cc3)ccc2O1", "NO"],
  ["Cc1n[nH]c(NCc2ccco2)nc1=O", "NO"],
  ["O=c1nc[nH]c2c1ncn2[C@H]1CC[C@@H](CO)O1", "NO"],
  ["Cc1c2oc3c(C)ccc(C(=O)OC(C)C4NC(=O)C(C(C)C)N(C)C(=O)CN(C)C(=O)C5CCCN5C(=O)C(C(C)C)NC4=O)c3nc-2c(C(=O)OC(C)C2NC(=O)C(C(C)C)N(C)C(=O)CN(C)C(=O)C3CCCN3C(=O)C(C(C)C)NC2=O)c(N)c1=O (configuration not stated)", "NO"],
  ["C/C=C1\\NC(=O)[C@H]2CSSCC/C=C/[C@H](CC(=O)N[C@H](C(C)C)C(=O)N2)OC(=O)[C@H](C(C)C)NC1=O", "YES"],
  ["CC(C)CC#Cc1ccc2c(c1)O[C@H](CN(C)C(=O)c1ccncc1)[C@@H](C)CN([C@H](C)CO)S2(=O)=O", "NO"]
]}

Can you look up the reported call for `COc1ccc(S(=O)(=O)N(C)C[C@@H]2Oc3ccc(NC(=O)Nc4cccc(C(F)(F)F)c4)cc3CC(=O)N([C@@H](C)CO)C[C@@H]2C)cc1Cl` for me?
YES

Can you look up the reported call for `CN(C)c1cncc(C(=O)O)c1` for me?
NO

Can you look up the reported call for `c1ccc(Nc2ncnc3sc(-c4ccccc4)cc23)cc1` for me?
NO

Can you look up the reported call for `C[C@@H]1CN([C@@H](C)CO)C(=O)Cc2cc(NC(=O)Cn3cnnn3)ccc2O[C@@H]1CN(C)CC1CCCCC1` for me?
NO

Can you look up the reported call for `CC(C)NC(=O)Nc1ccc2c(c1)C(=O)N([C@H](C)CO)C[C@@H](C)[C@H](CN(C)S(C)(=O)=O)OCCCC[C@@H](C)O2` for me?
NO

Can you look up the reported call for `Cc1noc(C)c1NC(=O)N(C)C[C@H]1Oc2c(NC(=O)NC(C)C)cccc2C(=O)N([C@@H](C)CO)C[C@@H]1C` for me?
NO

Can you look up the reported call for `Fc1ccc(Nc2ncnc3sc(-c4ccccc4)cc23)cc1` for me?
YES

Can you look up the reported call for `c1ccc(Nc2ncnc3cc(-c4ccccc4)sc23)cc1` for me?
NO

Can you look up the reported call for `O=C1CCCNc2ccc(Cl)cc21` for me?
NO
